Assay: in vivo
Settings: rat, po
value_type: Tmax (min)
One number for each entry, in min.

Query block: Entry "O=C(N[C@H]1CCc2cc(F)cc(F)c2NC1=O)c1n[nH]c(Cc2ccccc2)n1" : reported Tmax = ?
Result block: 49.8

---

Assay: in vivo
Details: dog, po, 2 mg/kg
value_type: Tmax (min)
Answers are plain numbers, in min.

Query block: Record request: Tmax value, item "O=C(N[C@H]1CCc2cc(F)cc(F)c2NC1=O)c1n[nH]c(Cc2ccccc2)n1"
Result block: 45

---

Assay: Volume of distribution at steady state in dog at 1.1 mg/kg, iv
Assay type: ADME, organism-based, Canis lupus familiaris
Settings: in vivo, read-out: Vdss
value_type: Vd (L/kg)
Give bare numbers, in L/kg.

Query block: Sample "O=C(N[C@H]1CCc2cc(F)cc(F)c2NC1=O)c1n[nH]c(Cc2ccccc2)n1" — what was its Vd?
Result block: 1.1
